These entries and their values trace back to patent US12564638B2.

tested on: PC9 cells (EGFR Exon 19 del, non-small cell lung cancer cells); test: Cell viability assay (WST/CCK8), PC9 cells; type: cell-based; conditions: Homo sapiens, PC-9; Table 6, canertinib-based compounds; PC9 (Exon19 Del); 72 hours; WST; read-out: IC50 (half inhibitory concentration)
READOUT LABEL: IC50 (nM)
Enter your answer as a number in nM; do not include the unit.

C=CC(=O)Nc1cc2c(Nc3ccc(F)c(Cl)c3)ncnc2cc1OCCCN1CCC(N2CCNCC2)CC1 [Caneritinib derivative B (SIAIS249183)] = 13.9

Data request: Quick check: IC50 of C=CC(=O)Nc1cc2c(Nc3ccc(F)c(Cl)c3)ncnc2cc1OCCCN1CCC(N2CCN(C(=O)CNc3cccc4c3C(=O)N(C3CCC(=O)NC3=O)C4=O)CC2)CC1 (centres unmarked) [SIAIS262177] ?
Data returned: 3.4

Data request: Quick check: IC50 of C=CC(=O)Nc1cc2c(Nc3ccc(F)c(Cl)c3)ncnc2cc1OCCCN1CCN(C(=O)CNc2cccc3c2C(=O)N(C2CCC(=O)NC2=O)C3=O)CC1 (centres unmarked) [SIAIS262124] ?
Data returned: 2.6

Data request: Quick check: IC50 of C=CC(=O)Nc1cc2c(Nc3ccc(F)c(Cl)c3)ncnc2cc1OCCCN1CCC(N2CCN(C(=O)CCCCCSc3cccc4c3CN(C3CCC(=O)NC3=O)C4=O)CC2)CC1 (centres unmarked) [SIAIS262176] ?
Data returned: 15.8

Data request: Quick check: IC50 of C=CC(=O)Nc1cc2c(Nc3ccc(F)c(Cl)c3)ncnc2cc1OCCCN1CCN(C(=O)CCC(=O)NCCNc2cccc3c2C(=O)N(C2CCC(=O)NC2=O)C3=O)CC1 (centres unmarked) [SIAIS249100] ?
Data returned: 88.5

Data request: Quick check: IC50 of C=CC(=O)Nc1cc2c(Nc3ccc(F)c(Cl)c3)ncnc2cc1OCCCN1CCN(C(=O)CSc2cccc3c2CN(C2CCC(=O)NC2=O)C3=O)CC1 (centres unmarked) [SIAIS262121] ?
Data returned: 43.4

Data request: Quick check: IC50 of C=CC(=O)Nc1cc2c(Nc3ccc(F)c(Cl)c3)ncnc2cc1OCCCN1CCN(C(=O)CCc2ccc(CCC(=O)N[C@H](C(=O)N3C[C@H](O)C[C@H]3C(=O)NCc3ccc(-c4scnc4C)cc3)C(C)(C)C)cc2)CC1 [SIAIS249102] ?
Data returned: 16

Data request: Quick check: IC50 of C=CC(=O)Nc1cc2c(Nc3ccc(F)c(Cl)c3)ncnc2cc1OCCCN1CCN(C(=O)CCCCSc2cccc3c2CN(C2CCC(=O)NC2=O)C3=O)CC1 (centres unmarked) [SIAIS262122] ?
Data returned: 23.1

Data request: Quick check: IC50 of C=CC(=O)Nc1cc2c(Nc3ccc(F)c(Cl)c3)ncnc2cc1OCCCN1CCC(N2CCN(C(=O)CSc3cccc4c3CN(C3CCC(=O)NC3=O)C4=O)CC2)CC1 (centres unmarked) [SIAIS262174] ?
Data returned: 16.7

Data request: Quick check: IC50 of C=CC(=O)Nc1cc2c(Nc3ccc(F)c(Cl)c3)ncnc2cc1OCCCN1CCC(N2CCN(C(=O)CCCCCCNc3cccc4c3C(=O)N(C3CCC(=O)NC3=O)C4=O)CC2)CC1 (centres unmarked) [SIAIS262179] ?
Data returned: 10.3

Data request: Quick check: IC50 of C=CC(=O)Nc1cc2c(Nc3ccc(F)c(Cl)c3)ncnc2cc1OCCCN1CCN(C(=O)CCN2CCN(CCC(=O)N[C@H](C(=O)N3C[C@H](O)C[C@H]3C(=O)NCc3ccc(-c4scnc4C)cc3)C(C)(C)C)CC2)CC1 [SIAIS249101] ?
Data returned: 58.5

Data request: Quick check: IC50 of C=CC(=O)Nc1cc2c(Nc3ccc(F)c(Cl)c3)ncnc2cc1OCCCN1CCN(C(=O)CCCCCSc2cccc3c2CN(C2CCC(=O)NC2=O)C3=O)CC1 (centres unmarked) [SIAIS262123] ?
Data returned: 8.3

Data request: Quick check: IC50 of C=CC(=O)Nc1cc2c(Nc3ccc(F)c(Cl)c3)ncnc2cc1OCCCN1CCN(C(=O)CCCCCCNc2cccc3c2C(=O)N(C2CCC(=O)NC2=O)C3=O)CC1 (centres unmarked) [SIAIS262126] ?
Data returned: 2.3
